measuredTarget: human GPIIb/IIIa receptor (Homo sapiens (Human), UniProt P05106+P08514)
Sequence (P08514 32-887): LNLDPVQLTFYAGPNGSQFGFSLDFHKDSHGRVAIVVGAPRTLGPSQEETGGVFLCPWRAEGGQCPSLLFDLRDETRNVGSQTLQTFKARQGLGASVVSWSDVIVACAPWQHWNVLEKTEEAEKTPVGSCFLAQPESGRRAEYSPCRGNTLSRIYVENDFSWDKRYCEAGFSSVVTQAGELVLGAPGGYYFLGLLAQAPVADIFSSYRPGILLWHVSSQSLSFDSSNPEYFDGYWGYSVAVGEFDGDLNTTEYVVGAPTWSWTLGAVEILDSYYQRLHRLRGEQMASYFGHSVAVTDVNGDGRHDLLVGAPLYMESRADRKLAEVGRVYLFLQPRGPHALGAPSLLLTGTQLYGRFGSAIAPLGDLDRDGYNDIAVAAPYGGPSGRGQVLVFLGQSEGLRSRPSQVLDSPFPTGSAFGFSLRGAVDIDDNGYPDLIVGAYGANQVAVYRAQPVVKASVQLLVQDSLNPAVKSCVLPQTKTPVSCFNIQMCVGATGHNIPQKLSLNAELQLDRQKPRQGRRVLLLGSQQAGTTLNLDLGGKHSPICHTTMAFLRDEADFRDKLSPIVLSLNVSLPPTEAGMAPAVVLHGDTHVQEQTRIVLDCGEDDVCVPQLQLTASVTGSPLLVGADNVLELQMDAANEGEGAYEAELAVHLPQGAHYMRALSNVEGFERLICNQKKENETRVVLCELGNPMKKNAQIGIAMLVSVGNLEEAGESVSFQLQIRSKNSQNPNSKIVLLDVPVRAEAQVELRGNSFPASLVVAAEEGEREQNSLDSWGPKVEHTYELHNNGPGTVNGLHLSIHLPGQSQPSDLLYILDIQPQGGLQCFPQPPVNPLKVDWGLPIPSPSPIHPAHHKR
Sequence (P08514 891-1039 partner): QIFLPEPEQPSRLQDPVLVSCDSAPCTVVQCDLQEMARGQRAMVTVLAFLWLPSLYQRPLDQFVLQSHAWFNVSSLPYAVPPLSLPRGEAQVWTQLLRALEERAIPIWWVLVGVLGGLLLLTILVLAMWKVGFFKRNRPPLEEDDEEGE
Sequence (P05106 27-788): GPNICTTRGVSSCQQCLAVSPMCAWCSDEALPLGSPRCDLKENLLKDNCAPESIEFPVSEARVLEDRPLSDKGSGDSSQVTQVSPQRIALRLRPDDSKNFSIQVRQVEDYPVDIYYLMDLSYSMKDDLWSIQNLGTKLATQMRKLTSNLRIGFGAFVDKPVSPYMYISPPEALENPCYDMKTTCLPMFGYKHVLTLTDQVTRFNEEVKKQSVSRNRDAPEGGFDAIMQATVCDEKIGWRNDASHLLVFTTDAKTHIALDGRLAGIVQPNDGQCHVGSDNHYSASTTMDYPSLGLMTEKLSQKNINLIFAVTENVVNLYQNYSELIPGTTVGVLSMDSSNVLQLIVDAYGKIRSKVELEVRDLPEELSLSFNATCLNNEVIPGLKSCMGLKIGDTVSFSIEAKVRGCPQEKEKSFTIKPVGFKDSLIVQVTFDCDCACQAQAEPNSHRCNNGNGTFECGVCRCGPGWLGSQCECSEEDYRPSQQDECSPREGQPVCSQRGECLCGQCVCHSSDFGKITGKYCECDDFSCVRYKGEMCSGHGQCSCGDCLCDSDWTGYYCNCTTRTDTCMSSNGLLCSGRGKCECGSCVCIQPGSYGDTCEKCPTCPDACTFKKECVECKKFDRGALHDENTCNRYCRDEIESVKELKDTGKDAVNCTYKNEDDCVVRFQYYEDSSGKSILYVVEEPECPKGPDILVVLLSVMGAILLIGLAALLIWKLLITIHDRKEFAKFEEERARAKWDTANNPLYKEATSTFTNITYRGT
measurementDescription: Affinity assay: displacement of tritiated reference compound from immobilized purified GPIIb/IIIa
Type: binding
particulars: 19F compounds vs 60 nM 3H-labeled reference compound, 1 hour at room temperature; read-out: IC50 human
measuredEndpoint: IC50 (nM)
Give bare numbers, in nM.

Reference set, count: 5
[[record]]
compound = "O=C(O)C[C@H](NC(=O)[C@@H]1CCCN(C(=O)CCC2CCNCC2)C1)c1cncc(-c2ccccc2OCCF)c1 [Example 8]"
unittag = "nM"
measuredresult = 14

[[record]]
compound = "O=C(O)C[C@H](NC(=O)[C@@H]1CCCN(C(=O)CCC2CCNCC2)C1)c1cncc(C=Cc2cccc(OCCF)c2)c1 (mixture of isomers) [Example 20]"
unittag = "nM"
measuredresult = 7

[[record]]
compound = "O=C(O)C[C@H](NC(=O)[C@@H]1CCCN(C(=O)CCC2CCNCC2)C1)c1cncc(CCc2ccc(OCCF)cc2)c1 [Example 18]"
unittag = "nM"
measuredresult = 3

[[record]]
compound = "O=C(O)C[C@H](NC(=O)[C@@H]1CCCN(C(=O)CCC2CCNCC2)C1)c1cncc(CCc2cccc(OCCF)c2)c1 [Example 19]"
unittag = "nM"
measuredresult = 3

[[record]]
compound = "O=C(O)C[C@H](NC(=O)[C@@H]1CCCN(C(=O)CCC2CCNCC2)C1)c1cncc(C#Cc2cccc(OCCF)c2)c1 [Example 16]"
unittag = "nM"
measuredresult = 6


Attention now shifts to the item below.
I would be grateful if you could share the reported IC50 for N#Cc1cc(-c2cncc([C@H](CC(=O)O)NC(=O)[C@@H]3CCCN(C(=O)CCC4CCNCC4)C3)c2)ccc1F [Example 9] . 21
